- Subject of test: Tyrosine-protein kinase SYK (Homo sapiens) (UniProt P43405)
- Protocol summary: Inhibition of human Syk at 1 uM relative to control; values are per cent of control
Here, each record is paired with measured residual activity data.

| Chemical smiles | Reading unit | residual activity |
| --- | --- | --- |
| O=C1NC(=O)C2=C1c1cn(c3ccccc13)CCCc1ccc(c(N3CCCC3)n1)CCCn1cc2c2ccccc21 | % | 109 |
| CN(C)c1cc2cc(n1)CCCn1cc(c3ccccc31)C1=C(C(=O)NC1=O)c1cn(c3ccccc13)CCC2 | % | 101 |
| CN(C)c1nc2ccc1CCCn1cc(c3ccccc31)C1=C(C(=O)NC1=O)c1cn(c3ccccc13)CC2 | % | 86 |
| O=C1NC(=O)C2=C1c1cn(c3ccccc13)CCCc1cc(nc(N3CCCC3)c1)CCCn1cc2c2ccccc21 | % | 105 |

---

# residual activity per record follows
- Subject of test: Ribosomal protein S6 kinase alpha-3 (Homo sapiens) (UniProt P51812)
- Sequence (P51812 whole entry): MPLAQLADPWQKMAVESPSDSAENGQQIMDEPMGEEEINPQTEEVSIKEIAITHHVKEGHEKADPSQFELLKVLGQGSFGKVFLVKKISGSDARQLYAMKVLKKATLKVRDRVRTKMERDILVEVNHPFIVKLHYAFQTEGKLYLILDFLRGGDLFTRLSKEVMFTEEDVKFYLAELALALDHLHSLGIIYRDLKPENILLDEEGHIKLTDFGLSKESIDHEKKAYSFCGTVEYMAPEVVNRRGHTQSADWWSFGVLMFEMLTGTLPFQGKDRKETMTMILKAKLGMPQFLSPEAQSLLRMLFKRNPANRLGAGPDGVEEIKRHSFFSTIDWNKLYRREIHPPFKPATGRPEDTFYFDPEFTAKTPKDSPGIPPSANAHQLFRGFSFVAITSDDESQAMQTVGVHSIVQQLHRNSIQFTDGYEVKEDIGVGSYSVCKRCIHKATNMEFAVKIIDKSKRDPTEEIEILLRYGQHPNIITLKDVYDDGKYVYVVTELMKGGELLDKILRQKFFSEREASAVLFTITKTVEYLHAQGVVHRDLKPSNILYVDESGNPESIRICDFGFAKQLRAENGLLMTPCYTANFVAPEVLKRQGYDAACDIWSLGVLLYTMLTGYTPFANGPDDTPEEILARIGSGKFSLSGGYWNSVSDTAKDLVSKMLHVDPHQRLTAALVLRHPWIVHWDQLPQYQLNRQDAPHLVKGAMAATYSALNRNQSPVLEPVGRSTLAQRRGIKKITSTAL
- Protocol summary: Inhibition of human Rsk3 at 1 uM relative to control; values are per cent of control
Reported endpoint: residual activity

| Chemical smiles | Result |
| --- | --- |
| O=C1NC(=O)C2=C1c1cn(c3ccccc13)CCCc1cc(nc(N3CCCC3)c1)CCCn1cc2c2ccccc21 | 5% |
| CN(C)c1nc2ccc1CCCn1cc(c3ccccc31)C1=C(C(=O)NC1=O)c1cn(c3ccccc13)CC2 | 33% |
| O=C1NC(=O)C2=C1c1cn(c3ccccc13)CCCc1ccc(c(N3CCCC3)n1)CCCn1cc2c2ccccc21 | 25% |
| CN(C)c1cc2cc(n1)CCCn1cc(c3ccccc31)C1=C(C(=O)NC1=O)c1cn(c3ccccc13)CCC2 | 5% |

---

- Subject of test: Glycogen synthase kinase-3 beta (Homo sapiens)
- Sequence (P49841 whole entry): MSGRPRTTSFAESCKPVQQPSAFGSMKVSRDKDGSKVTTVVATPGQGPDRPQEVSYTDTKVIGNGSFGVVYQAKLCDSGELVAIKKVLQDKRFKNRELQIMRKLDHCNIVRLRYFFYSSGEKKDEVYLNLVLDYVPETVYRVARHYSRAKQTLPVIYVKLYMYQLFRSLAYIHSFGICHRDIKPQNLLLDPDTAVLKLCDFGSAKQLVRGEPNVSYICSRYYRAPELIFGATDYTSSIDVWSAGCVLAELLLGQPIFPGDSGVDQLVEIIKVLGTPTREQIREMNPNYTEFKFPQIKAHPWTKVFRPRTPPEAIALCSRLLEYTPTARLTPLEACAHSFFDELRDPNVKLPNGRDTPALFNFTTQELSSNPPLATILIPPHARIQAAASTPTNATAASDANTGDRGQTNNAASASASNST
- Protocol summary: Inhibition of human recombinant GSK3-beta
The threshold is 10 nM. Values of IC50 beneath it are tagged yes; values meeting or exceeding it are tagged no.

| Chemical smiles | Category label |
| --- | --- |
| O=C1NC(=O)C2=C1c1cn(c3ccccc13)CCCc1cc(nc(N3CCCC3)c1)CCCn1cc2c2ccccc21 | no |
| O=C1NC(=O)C2=C1c1cn(c3ccccc13)CCCc1ccc(c(N3CCCC3)n1)CCCn1cc2c2ccccc21 | no |
| CN(C)c1cc2cc(n1)CCCn1cc(c3ccccc31)C1=C(C(=O)NC1=O)c1cn(c3ccccc13)CCC2 | yes |
| CN(C)c1nc2ccc1CCCn1cc(c3ccccc31)C1=C(C(=O)NC1=O)c1cn(c3ccccc13)CCC2 | no |
| CN(C)c1nc2ccc1CCCn1cc(c3ccccc31)C1=C(C(=O)NC1=O)c1cn(c3ccccc13)CC2 | yes |

---

- Subject of test: Ribosomal protein S6 kinase alpha-1 (Homo sapiens)
- Sequence (Q15418 whole entry): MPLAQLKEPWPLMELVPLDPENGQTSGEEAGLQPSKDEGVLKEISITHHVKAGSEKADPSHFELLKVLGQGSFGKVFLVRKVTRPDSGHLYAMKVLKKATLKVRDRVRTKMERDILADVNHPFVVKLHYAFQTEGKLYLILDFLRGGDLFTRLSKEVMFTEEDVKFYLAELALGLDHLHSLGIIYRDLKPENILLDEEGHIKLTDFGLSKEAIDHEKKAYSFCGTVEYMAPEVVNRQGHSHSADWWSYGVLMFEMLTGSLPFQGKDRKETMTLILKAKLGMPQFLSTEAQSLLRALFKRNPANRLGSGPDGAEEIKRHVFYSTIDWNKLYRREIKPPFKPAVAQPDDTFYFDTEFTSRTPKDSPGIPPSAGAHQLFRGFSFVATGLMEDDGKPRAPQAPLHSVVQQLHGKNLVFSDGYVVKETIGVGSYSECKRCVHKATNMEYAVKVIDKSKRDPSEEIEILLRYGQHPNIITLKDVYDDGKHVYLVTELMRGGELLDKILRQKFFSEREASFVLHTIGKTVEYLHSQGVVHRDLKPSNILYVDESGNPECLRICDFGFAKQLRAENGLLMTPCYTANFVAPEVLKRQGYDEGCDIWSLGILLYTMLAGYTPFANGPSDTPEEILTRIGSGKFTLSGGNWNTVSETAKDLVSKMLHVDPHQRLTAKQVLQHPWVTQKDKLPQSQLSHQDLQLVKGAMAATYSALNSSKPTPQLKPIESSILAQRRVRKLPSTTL
- Protocol summary: Inhibition of human Rsk1 at 1 uM relative to control; values are per cent of control
Entries and their residual activity values follow.
Reported endpoint: residual activity (%)

| Chemical smiles | Reported endpoint | Reading unit | Result number |
| --- | --- | --- | --- |
| O=C1NC(=O)C2=C1c1cn(c3ccccc13)CCCc1ccc(c(N3CCCC3)n1)CCCn1cc2c2ccccc21 | residual activity | % | 85 |
| CN(C)c1nc2ccc1CCCn1cc(c3ccccc31)C1=C(C(=O)NC1=O)c1cn(c3ccccc13)CC2 | residual activity | % | 39 |
| CN(C)c1cc2cc(n1)CCCn1cc(c3ccccc31)C1=C(C(=O)NC1=O)c1cn(c3ccccc13)CCC2 | residual activity | % | 15 |
| O=C1NC(=O)C2=C1c1cn(c3ccccc13)CCCc1cc(nc(N3CCCC3)c1)CCCn1cc2c2ccccc21 | residual activity | % | 15 |

The measurements presented in this section are drawn from ChEMBL document CHEMBL1139192.
